- targetEntity: Ubiquitin carboxyl-terminal hydrolase 2 (Homo sapiens, UniProt O75604)
- Sequence (O75604 whole entry): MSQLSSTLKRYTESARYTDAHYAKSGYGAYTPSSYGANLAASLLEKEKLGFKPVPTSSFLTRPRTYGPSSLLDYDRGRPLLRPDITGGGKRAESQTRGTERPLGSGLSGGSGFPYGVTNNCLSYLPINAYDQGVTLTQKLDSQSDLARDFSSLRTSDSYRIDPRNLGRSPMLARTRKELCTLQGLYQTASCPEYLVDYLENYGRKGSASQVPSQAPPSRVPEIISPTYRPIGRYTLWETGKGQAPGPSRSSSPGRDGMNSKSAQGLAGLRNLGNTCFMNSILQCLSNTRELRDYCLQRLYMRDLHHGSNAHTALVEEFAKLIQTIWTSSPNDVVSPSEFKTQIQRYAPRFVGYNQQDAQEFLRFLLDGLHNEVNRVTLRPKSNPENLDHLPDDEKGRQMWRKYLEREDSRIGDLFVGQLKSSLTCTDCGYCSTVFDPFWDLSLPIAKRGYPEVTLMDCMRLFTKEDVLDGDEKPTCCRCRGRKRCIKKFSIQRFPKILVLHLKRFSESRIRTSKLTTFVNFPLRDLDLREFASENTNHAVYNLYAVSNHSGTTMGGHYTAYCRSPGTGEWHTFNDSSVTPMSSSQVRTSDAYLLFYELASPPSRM
- procedureDetails: Inhibition of human GST-tagged USP2 isoform 4 expressed in Escherichia coli assessed as cleavage of Ubiquitin-Rhodamine110-glycine to Ubiquitin and Rhodamine110-glycine using Ubiquitin-Rhodamine110-glycine as substrate by fluorescence based analysis
pIC50: −log10 of the molar value.
property: pIC50

Endpoint output: pIC50 of Cc1cc(Cl)cc(-c2ccnc3cc(CN4C(=O)C5C(C4=O)C5(C)C)sc23)c1O[C@@H]1CCNC[C@@H]1C (stereo partly specified) . Value?
< 5.00

###

- procedureDetails: Cytotoxicity against human RKO cells assessed as reduction in cellular ATP level measured after 5 days by CellTiter-Glo assay
- Format: cell-based
property: CC50 at 120 h (µM)
Respond numerically; units are µM and should not be typed.

molecule	property	number
Cc1cc(Cl)cc(-c2ccnc3cc(CN4C(=O)C5C(C4=O)C5(C)C)sc23)c1C[C@@H]1CNCCO1 (some centres not stated)	CC50 at 120 h	13

// moving on: another record for CC50 at 120 h
Endpoint output: CC50 at 120 h of Cc1cc(Cl)cc(-c2ccnc3cc(CN4C(=O)C5C(C4=O)C5(C)C)sc23)c1O[C@@H]1CCNC[C@@H]1C (some centres not stated) . Value?
3.4

###

- targetEntity: Ubiquitin carboxyl-terminal hydrolase isozyme L3 (Homo sapiens, UniProt P15374)
- Sequence (P15374 whole entry): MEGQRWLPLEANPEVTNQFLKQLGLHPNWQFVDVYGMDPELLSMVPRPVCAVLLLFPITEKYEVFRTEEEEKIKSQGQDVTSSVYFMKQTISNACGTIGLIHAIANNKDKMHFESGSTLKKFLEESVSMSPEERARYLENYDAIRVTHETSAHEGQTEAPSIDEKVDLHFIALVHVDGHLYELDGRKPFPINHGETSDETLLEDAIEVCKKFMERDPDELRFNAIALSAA
Listed here: items and their measured IC50.

compound	IC50
CC(Cc1ccccc1)C(=O)N1CCC(O)(Cn2cnc3ccccc3c2=O)CC1 (configuration not stated)	> 80 µM

// moving on: another record for IC50
// map Cc1cc(Cl)cc(-c2ccnc3cc(CN4C(=O)C5C(C4=O)C5(C)C)sc23)c1O[C@@H]1CCNC[C@@H]1C (some centres not stated) to recorded IC50 (system: Ubiquitin carboxyl-terminal hydrolase isozyme L3 (Homo sapiens, UniProt P15374))
> 10 µM
